tested on: CAKI-1 renal; experiment: NCI tumour cell line growth inhibition, 48 h
Reported TGI values for a set of compounds

Here's what some known entries look like.
- compound: "CC12Oc3ccc4ccccc4c3C1c1c(ccc3ccccc13)O2 (configuration not stated)"
  targetUnderTest: "CAKI-1 renal"
  TGI: "> 100 µM"
- compound: "CCOC(=O)c1c(NS(=O)(=O)c2ccc(Br)cc2)sc2c1CCCC2"
  targetUnderTest: "CAKI-1 renal"
  TGI: "33.7 µM"
- compound: "COc1ccc(Cc2cc(OC)c(OC)c(OC)c2)cc1O"
  targetUnderTest: "CAKI-1 renal"
  TGI: "> 100 µM"
- compound: "NCC(=O)Nc1ccc(-n2nc(C(F)(F)F)cc2-c2ccc3c(ccc4ccccc43)c2)cc1"
  targetUnderTest: "CAKI-1 renal"
  TGI: "2.66 µM"
- compound: "CCN(CC)C(=O)C1=C(C)NC(C)=C(C(=O)N(CC)CC)C1"
  targetUnderTest: "CAKI-1 renal"
  TGI: "> 100 µM"
- compound: "O=[N+]([O-])c1ccc(Oc2cccnc2)c([N+](=O)[O-])c1"
  targetUnderTest: "CAKI-1 renal"
  TGI: "22.9 µM"

Q) Please look up its TGI: C=C1C(=O)O[C@H]2[C@H]1CC/C(COC(=O)NCc1c[nH]c3ccc(OC)cc13)=C\CC[C@@]1(C)O[C@@H]21
A) 3.28 µM

Q) Follow-up entry: CCOC(=O)CSc1[nH]c2nc(C)nc(Cl)c2c1C#N
A) > 10 µM

Hey, just so you know, these numbers are from PubChem BioAssay (NCI).
